tested target: T1, human Fc-PD-L2 (R&D systems) (human, UniProt Q9BQ51 20-219)
T1 construct: Bought Fc fusion coated on the ELISA plate; also called human PD-L2; not shown: Fc part of the bought fusion protein
T1 sequence: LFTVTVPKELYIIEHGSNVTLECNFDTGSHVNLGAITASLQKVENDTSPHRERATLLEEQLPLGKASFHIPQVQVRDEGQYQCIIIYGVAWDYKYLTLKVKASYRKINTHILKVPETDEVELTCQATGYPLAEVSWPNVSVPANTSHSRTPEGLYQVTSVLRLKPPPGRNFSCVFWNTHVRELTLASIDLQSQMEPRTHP
assay: competition ELISA on coated human Fc-PD-L2; competitor biotinylated 24F.10C12
readout label: IC50 (µg/mL)
Give bare numbers, in µg/mL.

Noted for 24F.10C12 composite, human antibody VH2/VK2 (antibody, V domains shown, V regions cloned into vectors containing human constant regions (quantified against an IgG1/kappa standard; isotype not expressly stated)) VH: QVQLVQSGAEVKKPGASVKMSCKASGYTFTGYTMHWVKQAPGQGLEWIGYINPRSGYTEYNQKFKDRTTLTADKSTSTAYMELSSLRSEDTAVYYCARPWFAYWGQGTLVTVSS VL: DIVMTQSPASLSVTPGEKVTITCKSSQSLLNSGNQKNYLTWYQQKPGQPPKLLIYWASTRESGVPDRFTGSGSGTDFTLTISSLQAEDVAVYYCQNDYSYPLTFGQGTKLEIK : its IC50 reads 0.58
